Below, each of the compounds is paired with its reported IC50 value.
# measured on: UniProt:Q9HCG7
# Sequence (Q9HCG7 1-927): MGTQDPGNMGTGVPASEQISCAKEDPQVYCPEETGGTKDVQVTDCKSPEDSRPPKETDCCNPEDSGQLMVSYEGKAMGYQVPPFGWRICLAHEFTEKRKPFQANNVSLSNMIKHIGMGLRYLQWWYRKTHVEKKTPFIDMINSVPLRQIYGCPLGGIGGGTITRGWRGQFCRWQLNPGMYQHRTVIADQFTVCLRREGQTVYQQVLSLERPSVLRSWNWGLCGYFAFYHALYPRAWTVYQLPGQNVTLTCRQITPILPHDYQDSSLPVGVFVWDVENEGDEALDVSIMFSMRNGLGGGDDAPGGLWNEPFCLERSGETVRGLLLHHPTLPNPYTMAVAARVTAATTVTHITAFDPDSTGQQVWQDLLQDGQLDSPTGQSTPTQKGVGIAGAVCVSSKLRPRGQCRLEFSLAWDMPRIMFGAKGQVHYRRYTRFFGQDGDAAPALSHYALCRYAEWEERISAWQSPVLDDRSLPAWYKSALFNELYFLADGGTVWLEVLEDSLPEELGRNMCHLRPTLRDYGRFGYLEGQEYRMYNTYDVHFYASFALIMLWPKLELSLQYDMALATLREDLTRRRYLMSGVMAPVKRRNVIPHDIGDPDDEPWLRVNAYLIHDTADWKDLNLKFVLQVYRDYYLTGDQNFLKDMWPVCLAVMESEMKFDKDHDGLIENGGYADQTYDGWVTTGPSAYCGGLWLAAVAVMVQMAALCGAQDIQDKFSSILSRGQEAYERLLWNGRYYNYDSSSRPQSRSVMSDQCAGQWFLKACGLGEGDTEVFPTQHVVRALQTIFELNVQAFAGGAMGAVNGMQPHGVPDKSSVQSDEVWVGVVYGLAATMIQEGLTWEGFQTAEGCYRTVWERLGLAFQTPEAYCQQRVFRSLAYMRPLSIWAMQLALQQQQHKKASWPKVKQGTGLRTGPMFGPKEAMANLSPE
# test method notes: Determination of IC50 values for inhibition of GBA2 in cell lysate
# Assay type: biochemical
# Parameters: host or cells: HEK293T (lentiviral transduction, puromycin selection); used as cellular homogenate
# reported conditions: cellular homogenate of HEK293T cells overexpressing human GBA2, 250 μM 4-methylumbelliferone-β-D glucopyranoside, pH 5.5, 37° C., GCase inhibitor present; read-out: GBA2 IC50

Example compounds with recorded IC50:
C[C@@H]1[C@@H](O)[C@H](O)[C@@H](O)CN1C[C@H]1CCCN(c2cccc(C(F)(F)F)n2)C1: < 0.1 µM
O[C@H]1[C@H](O)[C@@H](O)CN(CCc2c(F)cc(-c3ccccc3)cc2F)[C@@H]1CF: < 0.1 µM
C[C@@H]1[C@@H](O)[C@H](O)[C@@H](O)CN1CC1CCN(C(=O)C2CC2)CC1: 1 to 25 µM

Give IC50 for the following compound: C[C@@H]1[C@@H](O)[C@H](O)[C@@H](O)CN1CC1CCN(c2ccccc2)CC1
0.1 to 1 µM
